// data source = patent US11479551B2

Target: PRMT5/MEP50 complex (Homo sapiens (Human))
Assay: PRMT5:MEP50 FlashPlate Assay (histone H4 peptide substrate, plus and minus MTA)
Format: biochemical
Details: in the absence of MTA, read-out: IC50
pIC50: −log10 of the molar value.
measured_quantity: pIC50

INSERT INTO assay_data (compound, measured_quantity, quantitative_readout) VALUES
  ('COc1c(-c2ccc3c(=O)[nH]nc(CN)c3c2)cnn1C', 'pIC50', 6.12);

(1) NCc1n[nH]c(=O)c2ccc(-c3cncc(C(O)c4ccccc4)c3)cc12 (stereo not shown)
(2) CCc1cncc(-c2ccc3c(=O)[nH]nc(CN)c3c2)c1
(3) N#Cc1ccccc1-c1cncc(-c2ccc3c(=O)[nH]nc(CN)c3c2)c1
Inquiry: With regard to pIC50, arrange the entries in ascending order, please. Please list each label once, in the requested order.
Reply text: 2, 1, 3

(1) N#Cc1ccc(Cl)cc1-c1cncc(-c2ccc3c(=O)[nH]nc(CN)c3c2)c1
(2) Cc1ncc(-c2ccc3c(=O)[nH]nc(CN)c3c2)n1C
Inquiry: Returns the identifier with the smallest measured pIC50 among 1 and 2 . Selection: enter the item's label.
Reply text: 2
(2: 5.23, 1: 5.67)

(P) COCc1c[nH]c2ncc(-c3ccc4c(=O)[nH]nc(CN)c4c3)cc12
(Q) NCc1n[nH]c(=O)c2ccc(-c3cccnc3)cc12
Inquiry: Could you please tell me which of these two has the higher pIC50: P or Q ? Selection: enter the item's label.
Reply text: P

(A) CC(C)N1CCn2ncc(-c3ccc4c(=O)[nH]nc(CN)c4c3)c2C1
(B) Cc1ccc(Oc2cncc(-c3ccc4c(=O)[nH]nc(CN)c4c3)c2)cc1Cl
(C) CC#Cc1cncc(-c2ccc3c(=O)[nH]nc(CN)c3c2)c1
(D) NCc1n[nH]c(=O)c2ccc(-c3cncc(Oc4ncccn4)c3)cc12
(E) NCc1n[nH]c(=O)c2ccc(-c3cncc(Oc4ccccc4)c3)cc12
Inquiry: Sort the 5 compounds by pIC50; largest first, smallest last. Please list each label once, in the requested order.
Reply text: B, E, A, D, C

* * *

Molecular target: PRMT5/MEP50 complex (Homo sapiens (Human), UniProt O14744)
Sequence (O14744 2-637): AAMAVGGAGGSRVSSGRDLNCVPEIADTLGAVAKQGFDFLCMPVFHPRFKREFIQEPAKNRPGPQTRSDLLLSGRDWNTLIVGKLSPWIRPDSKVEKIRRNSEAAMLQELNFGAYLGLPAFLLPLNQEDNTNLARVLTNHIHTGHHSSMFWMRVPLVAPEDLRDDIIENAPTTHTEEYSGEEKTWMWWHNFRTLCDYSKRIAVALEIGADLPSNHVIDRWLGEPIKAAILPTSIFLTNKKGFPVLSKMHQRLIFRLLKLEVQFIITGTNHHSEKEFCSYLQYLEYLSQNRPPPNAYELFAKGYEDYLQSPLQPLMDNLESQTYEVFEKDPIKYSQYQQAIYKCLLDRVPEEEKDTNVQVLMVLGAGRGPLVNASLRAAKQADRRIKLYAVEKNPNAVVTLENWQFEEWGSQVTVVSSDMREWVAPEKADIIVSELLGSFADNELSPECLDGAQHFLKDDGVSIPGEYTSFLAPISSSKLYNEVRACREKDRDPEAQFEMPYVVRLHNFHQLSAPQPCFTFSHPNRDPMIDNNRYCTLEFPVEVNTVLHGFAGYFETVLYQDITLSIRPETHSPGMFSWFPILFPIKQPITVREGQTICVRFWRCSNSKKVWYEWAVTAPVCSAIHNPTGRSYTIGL
Sequence (Q9BQA1 2-342 partner): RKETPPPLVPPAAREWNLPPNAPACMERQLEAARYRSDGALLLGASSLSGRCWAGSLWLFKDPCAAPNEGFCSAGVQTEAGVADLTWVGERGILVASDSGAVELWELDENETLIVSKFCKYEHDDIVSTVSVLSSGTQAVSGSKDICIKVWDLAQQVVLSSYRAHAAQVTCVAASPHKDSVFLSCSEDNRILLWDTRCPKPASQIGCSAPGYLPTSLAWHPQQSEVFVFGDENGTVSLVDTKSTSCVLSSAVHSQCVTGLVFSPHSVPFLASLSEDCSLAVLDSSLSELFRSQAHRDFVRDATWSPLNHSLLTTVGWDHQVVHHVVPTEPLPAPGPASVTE
Assay: PRMT5:MEP50 HotSpot Assay (full-length histone H2A substrate, plus and minus MTA)
Type: biochemical
Conditions: IC50 + 2 μM MTA, in the presence of 2 μM MTA
measured_quantity: IC50 (nM)

INSERT INTO assay_data (compound, measured_quantity, quantitative_readout) VALUES
  ('Cn1ncc(-c2ccc3c(=O)[nH]nc([C@@H](N)C(F)F)c3c2)c1-c1ccc2ccccc2c1C#N [Example 9-7]', 'IC50', 2560),
  ('Cc1c(-c2cnn(C)c2)ccc(-c2c(-c3ccc4c(=O)[nH]nc(CN)c4c3)cnn2C)c1C#N [Example 12-13]', 'IC50', 218),
  ('Cn1ncc(-c2ccc3c(=O)[nH]nc(CN)c3c2)c1OCC1CC1 [Example 4-116]', 'IC50', 1080),
  ('Cn1ncc(-c2ccc3c(=O)[nH]nc(CN)c3c2)c1-c1ccc2c(c1C#N)CCCO2 [Example 4-196]', 'IC50', 653),
  ('CCc1cc(Cl)cc(-c2c(-c3ccc4c(=O)[nH]nc(CN)c4c3)cnn2C)c1C#N [Example 4-200]', 'IC50', 156);

(1) [2H]C([2H])(N)c1n[nH]c(=O)c2ccc(-c3cnn(C)c3-c3cccc(Cl)c3C#N)cc12 [Example 11-1]
(2) Cn1ncc(-c2cc(F)c3c(=O)[nH]nc(CN)c3c2)c1-c1ccc2ccccc2c1C#N [Example 10-2]
Inquiry: Returns the identifier with the smallest measured IC50 among 1 and 2 . Selection: enter the item's label.
Reply text: 2
(2: 67.2 nM, 1: 1970 nM)

(P) CCOc1ccc(-c2c(-c3ccc4c(=O)[nH]nc(CN)c4c3)cnn2C)c(C#N)c1 [Example 4-173]
(Q) Cn1ncc(-c2ccc3c(=O)[nH]nc(CN)c3c2)c1-c1ccc(OC2CCC2)cc1 [Example 4-138]
(R) COc1ccc(-c2c(-c3ccc4c(=O)[nH]nc(CN)c4c3)cnn2C)c(C#N)c1Cl [Example 4-170]
(S) CCc1ccc(-c2c(-c3ccc4c(=O)[nH]nc(CN)c4c3)cnn2C)cc1 [Example 4-134]
Inquiry: Sort the 4 compounds by IC50; largest first, smallest last. Please list each label once, in the requested order.
Reply text: S, P, R, Q
(S: 2730 nM, P: 1600 nM, R: 728 nM, Q: 354 nM)
